Test: clinical
Condition summary: human, in vivo, 1600 mg
Property label: half-life (min)
Answers are plain numbers, in min.

Provide half-life values for the following items, in order.
1. Nc1ccc(O)c(C(=O)O)c1
2. CC(=O)Nc1ccc(O)c(C(=O)O)c1

[329, 603]

###

Test: Steady state pharmacokinetics, 3 treatments of 4 days: Asacol 800 mg BID, granulated mesalamine formulation 800 mg BID and 1600 mg QD
Type: in vivo, human
Condition summary: human, plasma, oral, 800 mg, AUCC, Day 4, after Asacol 800 mg BID; converted from μmol * h/L; read-out: AUC
Description: In a study of 3 treatments in 3 study periods, each separated by a minimum washout of 7 days, treatments were administered orally, and were as follows: Subjects received treatments A, B, and C, with each administered during one of the three 4-day study treatment periods. Each treatment regimen lasted for 4 days and was followed by at least a 7 day washout period.
Property label: AUC

Please give the measured AUC for this compound: Nc1ccc(O)c(C(=O)O)c1 [Mesalamine (5-ASA), 5-aminosalicylic acid] 8.34 ng·h/mL

###

Test: Single and multiple oral dose pharmacokinetics of 1.5 g granulated mesalamine formulation, crossover, healthy subjects, fasting
Condition summary: human, plasma, oral, 1.5 g, Mean half-lives, following single and multiple doses of granulated mesalamine formulation
Property label: half-life

// lookup half-life for CC(=O)Nc1ccc(O)c(C(=O)O)c1 [N-Ac-5-ASA, N-acetyl-5-aminosalicylic acid] 12 to 14 h

###

Test: Steady state pharmacokinetics, 3 treatments of 4 days: Asacol 800 mg BID, granulated mesalamine formulation 800 mg BID and 1600 mg QD
Format: in vivo, human
Condition summary: human, plasma, oral, 800 mg, plasma, Day 4, after Treatment A Asacol 800 mg BID, n = 28; mean ± SD
So I've got a bunch of compounds here, and I need their Cmax values.
The answer consists of two parts: a number and, after it, its unit.

CC(=O)Nc1ccc(O)c(C(=O)O)c1 [N-Ac-5-ASA, N-acetyl-5-aminosalicylic acid] :: 12 µM

With those in mind, consider the next compound.
Please report the recorded Cmax for Nc1ccc(O)c(C(=O)O)c1 [Mesalamine (5-ASA), 5-aminosalicylic acid] . 6.93 µM

###

Test: Steady state pharmacokinetics, 3 treatments of 4 days: Asacol 800 mg BID, granulated mesalamine formulation 800 mg BID and 1600 mg QD
Type: in vivo, human
Condition summary: human, plasma, oral, 800 mg, plasma, Day 4, after Treatment B MP 800 mg BID, n = 28; mean ± SD
Would you kindly list Cmax for each of these compounds?
Numbers only, in µM.

CC(=O)Nc1ccc(O)c(C(=O)O)c1 :: 18.5

Turning now to a further record.
Data request, read-out Cmax, for Nc1ccc(O)c(C(=O)O)c1 11.9

###

Test: in vitro
Condition summary: plasma
Property label: fraction unbound at 2.5 μg/mL
Numbers only.

Reported fraction unbound at 2.5 μg/mL, compound CC(=O)Nc1ccc(O)c(C(=O)O)c1 [N-Ac-5-ASA, N-acetyl-5-aminosalicylic acid] : ____ 0.22

###

Test: Single and multiple oral dose pharmacokinetics of 1.5 g granulated mesalamine formulation, crossover, healthy subjects, fasting
Condition summary: human, plasma, oral, 1.5 g, AUC0-24, plasma; multiple dose 1.5 g QD, after 7 days, n = 24; mean ±SD
Property label: AUC(0-t) (ng·h/mL)
One number for each entry, in ng·h/mL.

So what's the measured AUC(0-t) for this one? CC(=O)Nc1ccc(O)c(C(=O)O)c1 37000
